B1: OR4K15 (parent)
chain: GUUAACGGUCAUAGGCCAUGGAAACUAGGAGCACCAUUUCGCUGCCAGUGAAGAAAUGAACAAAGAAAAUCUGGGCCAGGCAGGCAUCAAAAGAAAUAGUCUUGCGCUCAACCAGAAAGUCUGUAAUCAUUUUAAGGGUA

Variants of: B1
assayOverview: self-cleavage, relative activity (ratio to wild type); higher = more cleavage; in vitro, sequencing; the parent is a self-cleaving ribozyme
Label TRUE for high-side self-cleavage (at or above 0.8) and FALSE for low-side self-cleavage (below it).

Please review the following examples before continuing.
In [3]: df
Out[3]:
   mutationname  category
0     A54G A66G      TRUE
1     A64G A89G      TRUE
2     A86U A89C      TRUE

Exam item: decide whether the reported self-cleavage for G7A U122C is at least 0.8.
TRUE

Same lookup for A22U U97C , please.
FALSE

Now the variant A66G A92G
FALSE

Cool, now U19C A92G
TRUE

What about this variant? A18U A114U
FALSE

Cool, now A67G U139A
TRUE

Try this variant too: U43A A51U
TRUE

Also check A18G A96G
TRUE

Cited source: the RNAGym collection of RNA variant scans (doi:10.7554/elife.90254)
